experimental.details: clinical
Type: in vivo, human
experimental.context: human, plasma, oral, 10 mg, single dose 10 mg, adults (n = 5), mean (%CV); read-out: T1/2 (converted)
reported.endpoint: half-life (h)
// note: answer is a bare numeric in h

Record C[C@@]1(c2nc(NC(=O)c3ncc(C(F)(F)F)cc3Cl)ccc2F)CO[C@@](C)(C(F)(F)F)C(N)=N1 . Reported half-life: 61.3

====

experimental.details: clinical
Format: in vivo, human
experimental.context: human, plasma, oral, 35 mg, 3 months, Day 91, median (min–max)
reported.endpoint: Tmax (h)
// note: answer is a bare numeric in h

Record C[C@@]1(c2nc(NC(=O)c3ncc(C(F)(F)F)cc3Cl)ccc2F)CO[C@@](C)(C(F)(F)F)C(N)=N1 [CNP520] . Reported Tmax: 2.5

====

experimental.details: clinical
Type: in vivo, human
experimental.context: both sexes, human, CSF, oral; 35 mg q.d., 3 month study, mean (CV %); read-out: CSF conc 24h after dose Day 91
reported.endpoint: concentration at 24 h (ng/mL)
// note: answer is a bare numeric in ng/mL

Record C[C@@]1(c2nc(NC(=O)c3ncc(C(F)(F)F)cc3Cl)ccc2F)CO[C@@](C)(C(F)(F)F)C(N)=N1 . Reported concentration at 24 h: 4.52

====

experimental.details: clinical
Format: in vivo, human
experimental.context: human, plasma, oral, 10 mg, single dose 10 mg, adults ≥ 60 years (6), mean (%CV); read-out: Cmax
reported.endpoint: Cmax (ng/mL)
// note: answer is a bare numeric in ng/mL

Record C[C@@]1(c2nc(NC(=O)c3ncc(C(F)(F)F)cc3Cl)ccc2F)CO[C@@](C)(C(F)(F)F)C(N)=N1 [CNP520] . Reported Cmax: 16

====

experimental.details: pKa determination
Format: physicochemical
experimental.context: cyclic amidine
reported.endpoint: pKa
Keep the answer to the number alone.

Record C[C@@]1(c2nc(NC(=O)c3ncc(C(F)(F)F)cc3Cl)ccc2F)CO[C@@](C)(C(F)(F)F)C(N)=N1 . Reported pKa: 7.2

====

experimental.details: clinical
Type: in vivo, human
experimental.context: human, plasma, oral, 10 mg, single dose 10 mg, adults (6), median (min–max); read-out: Tmax
Protocol: The lower limit of quantification (LLOQ) was 1 ng/ml in plasma and 2 ng/ml in urine and CSF, except for the 3‐month study where the method for CSF was more sensitive (LLOQ 0.1 ng/ml). Plasma PK parameters were calculated using actual recorded sampling times and non‐compartmental methods with Phoenix WinNonlin version 6.4 (Certara, Inc., Princeton, NJ, USA). For further details, see the Appendix Table S10 in Appendix and the accompanying clinical protocols synopsis (Appendix Table S11).
reported.endpoint: Tmax (h)
// note: answer is a bare numeric in h

Record C[C@@]1(c2nc(NC(=O)c3ncc(C(F)(F)F)cc3Cl)ccc2F)CO[C@@](C)(C(F)(F)F)C(N)=N1 [CNP520] . Reported Tmax: 4

====

experimental.details: clinical
Format: in vivo, human
experimental.context: human, plasma, oral, 1250 mg, single dose 1250 mg, adults (2), individual data points
reported.endpoint: AUC(0-inf) (µg·h/mL)
// note: answer is a bare numeric in µg·h/mL

Record C[C@@]1(c2nc(NC(=O)c3ncc(C(F)(F)F)cc3Cl)ccc2F)CO[C@@](C)(C(F)(F)F)C(N)=N1 [CNP520] . Reported AUC(0-inf): 168
